Where do these numbers come from? They come from paper PMC12208130.

# assayed_target: PTK7 (receptor on HCT116 cells) (human (HCT116 colon cancer cells)) (UniProt Q13308)
# Sequence: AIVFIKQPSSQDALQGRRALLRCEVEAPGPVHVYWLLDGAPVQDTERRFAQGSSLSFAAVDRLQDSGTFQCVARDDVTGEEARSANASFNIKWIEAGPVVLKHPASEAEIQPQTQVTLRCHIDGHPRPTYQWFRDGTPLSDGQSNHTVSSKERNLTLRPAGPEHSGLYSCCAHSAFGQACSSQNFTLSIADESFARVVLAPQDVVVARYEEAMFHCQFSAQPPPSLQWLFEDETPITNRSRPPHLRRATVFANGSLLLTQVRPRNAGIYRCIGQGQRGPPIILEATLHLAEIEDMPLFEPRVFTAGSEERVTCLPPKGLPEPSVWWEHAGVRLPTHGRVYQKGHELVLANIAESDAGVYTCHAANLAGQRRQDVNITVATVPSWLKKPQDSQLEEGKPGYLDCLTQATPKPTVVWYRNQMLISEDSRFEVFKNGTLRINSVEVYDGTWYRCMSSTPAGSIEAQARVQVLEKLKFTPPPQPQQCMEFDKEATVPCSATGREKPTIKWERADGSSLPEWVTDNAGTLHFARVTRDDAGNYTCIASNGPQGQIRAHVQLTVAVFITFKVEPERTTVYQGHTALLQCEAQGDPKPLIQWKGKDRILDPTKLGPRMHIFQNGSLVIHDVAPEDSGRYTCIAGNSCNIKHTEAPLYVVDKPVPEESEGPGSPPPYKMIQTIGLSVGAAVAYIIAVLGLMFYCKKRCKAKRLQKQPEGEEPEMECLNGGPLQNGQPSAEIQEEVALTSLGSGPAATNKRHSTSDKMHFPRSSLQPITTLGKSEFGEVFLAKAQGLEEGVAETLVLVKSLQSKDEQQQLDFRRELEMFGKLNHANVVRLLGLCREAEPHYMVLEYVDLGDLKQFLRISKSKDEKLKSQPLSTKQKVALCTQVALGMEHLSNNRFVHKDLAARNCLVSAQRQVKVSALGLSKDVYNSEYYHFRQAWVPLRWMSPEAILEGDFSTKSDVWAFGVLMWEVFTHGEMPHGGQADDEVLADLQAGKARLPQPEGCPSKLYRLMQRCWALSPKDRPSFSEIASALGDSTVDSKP
# assay_text: flow cytometry
# condition: 250 nM aptamer (varied for Kd), 30 min at 4 C, DPBS with ~5 mM MgCl2, 0.1 mg/mL yeast tRNA, 1 mg/mL BSA (a 2.25 g additive in the wash buffer is …)
measured_attribute: Kd

Requested read-out Kd, target or system PTK7 (receptor on HCT116 cells) (human (HCT116 colon cancer cells)) (UniProt Q13308), entry ATCTAACTGCTGCGCCGCCGGGAAAATACTGTACGGTTAGA [Sgc8c (Sgc8-Cy5)] 5.92 nM
